Biological target: High affinity nerve growth factor receptor (Homo sapiens)
Details: at 1 µM

compound: Fc1cccc(COc2ccc(Nc3ncncc3C#Cc3ccccc3)cc2Cl)c1
target.entity: High affinity nerve growth factor receptor (Homo sapiens)
inhibition: 2.13%
//
compound: CC(C)c1ccc(-c2cc(-c3c[nH]nc3-c3ccccn3)ccn2)cc1
target.entity: High affinity nerve growth factor receptor (Homo sapiens)
inhibition: 2.9%
//
compound: COc1cc(N2CCN(C(C)C)CC2)ccc1Nc1nc(Nc2cccc3ncccc23)c2cc[nH]c2n1
target.entity: High affinity nerve growth factor receptor (Homo sapiens)
inhibition: 1.49%
//
compound: CC1=C(C(=O)Nc2ccc3[nH]ncc3c2)C(c2ccc(F)cc2)N=C(c2ccc(C(F)(F)F)nc2)N1 (stereo not given)
target.entity: High affinity nerve growth factor receptor (Homo sapiens)
inhibition: 4.07%
//
compound: CS(=O)(=O)CCNCc1ccoc1-c1ccc2ncnc(Nc3ccc(OCc4ccccc4)cc3)c2c1
target.entity: High affinity nerve growth factor receptor (Homo sapiens);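 further: each value is the mean percent inhibition of TRKA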
inhibition: 1.88%

====

Items are presented alongside their recorded inhibition.
Target: Tyrosine-protein kinase BTK (Homo sapiens) (UniProt Q06187)
Sequence (Q06187 whole entry): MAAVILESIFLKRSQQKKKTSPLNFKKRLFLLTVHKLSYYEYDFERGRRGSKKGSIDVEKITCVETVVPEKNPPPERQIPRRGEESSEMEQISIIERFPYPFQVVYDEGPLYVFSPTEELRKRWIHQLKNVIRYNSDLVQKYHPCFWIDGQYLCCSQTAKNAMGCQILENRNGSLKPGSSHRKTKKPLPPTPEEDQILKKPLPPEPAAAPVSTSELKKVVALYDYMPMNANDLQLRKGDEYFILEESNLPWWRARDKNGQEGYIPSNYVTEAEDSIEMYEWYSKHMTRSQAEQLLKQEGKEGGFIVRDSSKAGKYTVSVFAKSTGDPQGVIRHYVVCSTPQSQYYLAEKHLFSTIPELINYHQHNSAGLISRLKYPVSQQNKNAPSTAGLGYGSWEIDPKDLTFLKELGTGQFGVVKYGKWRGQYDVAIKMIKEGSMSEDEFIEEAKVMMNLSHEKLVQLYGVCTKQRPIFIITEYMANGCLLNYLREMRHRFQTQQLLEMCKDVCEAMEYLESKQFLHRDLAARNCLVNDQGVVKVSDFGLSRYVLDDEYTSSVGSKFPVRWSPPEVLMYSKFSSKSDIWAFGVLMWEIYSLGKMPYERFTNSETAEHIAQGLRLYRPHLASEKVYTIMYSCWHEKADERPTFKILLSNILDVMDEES
Details: at 0.1 µM

compound: O=C1Nc2ccccc2/C1=C1\CCc2cc(O)ccc21
target.entity: Tyrosine-protein kinase BTK (Homo sapiens) (UniProt Q06187)
inhibition, %: -0.87
//
compound: CC1=C(C(=O)Nc2ccc3[nH]ncc3c2)C(c2ccc(F)cc2)N=C(c2ccc(C(F)(F)F)nc2)N1 (centres undefined)
target.entity: Tyrosine-protein kinase BTK (Homo sapiens) (UniProt Q06187)
inhibition, %: 0.06
//
compound: O=C(O[C@H]1CN[C@H](C#Cc2cc3ncnc(Nc4ccc5c(cnn5Cc5ccccc5)c4)c3s2)C1)N1CCOCC1
target.entity: Tyrosine-protein kinase BTK (Homo sapiens) (UniProt Q06187)
inhibition, %: 2.14
//
compound: COc1cccc(-n2ncc3c(N/N=C/c4ccc(C(=O)NCCN(C)C)cc4)ncnc32)c1
target.entity: Tyrosine-protein kinase BTK (Homo sapiens) (UniProt Q06187)
inhibition, %: 1.25
//
compound: CS(=O)(=O)Nc1ccc(-c2cc(-c3ccccc3)cc(C(N)=O)c2N)cc1
target.entity: Tyrosine-protein kinase BTK (Homo sapiens) (UniProt Q06187)
inhibition, %: -2.25
//
compound: CN1CCC(n2cnc(-c3ccc(F)cc3)c2-c2ccnc(NCCO)n2)CC1
target.entity: Tyrosine-protein kinase BTK (Homo sapiens) (UniProt Q06187)
inhibition, %: 0.96
//
compound: CCOc1ccc2c(-c3ccnc(Nc4cc(OC)cc(C(F)(F)F)c4)n3)cnn2n1
target.entity: Tyrosine-protein kinase BTK (Homo sapiens) (UniProt Q06187)
inhibition, %: -0.58
//
compound: c1ccc(-c2n[nH]cc2-c2ccnc(-c3ccc(OCCn4ccnc4)cc3)c2)nc1
target.entity: Tyrosine-protein kinase BTK (Homo sapiens) (UniProt Q06187)
inhibition, %: 0.31
//
compound: CS(=O)(=O)CCNCc1ccoc1-c1ccc2ncnc(Nc3ccc(OCc4ccccc4)cc3)c2c1
target.entity: Tyrosine-protein kinase BTK (Homo sapiens) (UniProt Q06187);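 further: values are averaged percent inhibition of BTK enzyme activity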
inhibition, %: 0.01

====

Biological target: Proto-oncogene tyrosine-protein kinase Src (Homo sapiens);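 further: each value is an averaged percent inhibition of SRC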
Details: at 1 µM

smiles.str: N#Cc1ccc2c(-c3ccnc(NC4CC4)n3)c(-c3ccc(F)cc3)nn2c1
value.unit: %
inhibition: 3.58

smiles.str: CN1CCC(n2cnc(-c3ccc(F)cc3)c2-c2ccnc(NCCO)n2)CC1
value.unit: %
inhibition: 7.94

smiles.str: Fc1cccc(COc2ccc(Nc3ncncc3C#Cc3ccccc3)cc2Cl)c1
value.unit: %
inhibition: 9.06

smiles.str: CCN1CCC(C(=O)Nc2n[nH]c3nnc(-c4cccc(F)c4F)cc23)CC1
value.unit: %
inhibition: -2.38

smiles.str: Cc1c2ccc(N(C)c3ccnc(Nc4cccc(S(N)(=O)=O)c4)n3)cc2nn1C
value.unit: %
inhibition: 82.8

smiles.str: COc1cc(Nc2ncc(-c3ccccc3)o2)cc(OC)c1
value.unit: %
inhibition: 49.7

smiles.str: CS(=O)(=O)CCNCc1ccoc1-c1ccc2ncnc(Nc3ccc(OCc4ccccc4)cc3)c2c1
value.unit: %
inhibition: 4.6

smiles.str: O=C(O[C@H]1CN[C@H](C#Cc2cc3ncnc(Nc4ccc5c(cnn5Cc5ccccc5)c4)c3s2)C1)N1CCOCC1
value.unit: %
inhibition: -0.98

smiles.str: O=C(O[C@H]1CN[C@H](C#Cc2cc3ncnc(Nc4ccc5c(ccn5Cc5cc(F)ccc5F)c4)c3s2)C1)N1CCOCC1
value.unit: %
inhibition: 8.86

smiles.str: CCn1c(-c2nonc2N)nc2cncc(C(=O)NCCNC)c21
value.unit: %
inhibition: 6.62

smiles.str: OCCCNc1nccc(-c2c(-c3ccc(F)cc3)nn3cc(C(F)(F)F)ccc23)n1
value.unit: %
inhibition: 8.49

smiles.str: CN(C)CCNC(=O)Nc1ccc(N(C)c2ccnc(Nc3ccc(CS(C)(=O)=O)cc3)n2)cc1
value.unit: %
inhibition: 14.4

smiles.str: COc1ccc(-c2nn3ncccc3c2-c2ccnc(Nc3ccc(F)c(F)c3)n2)cc1
value.unit: %
inhibition: 19.4

smiles.str: Cc1nnc(-c2cccc(-c3ccc(C(=O)NCC4CC4)cc3)c2)o1
value.unit: %
inhibition: 10.2

smiles.str: NC(=O)c1ccc2c(-c3ccnc(NCCCO)n3)c(-c3ccc(F)cc3)nn2c1
value.unit: %
inhibition: 12.9

smiles.str: N#Cc1cccc(Nc2ncc(-c3ccccc3)o2)c1
value.unit: %
inhibition: 19.9

smiles.str: CNC(=O)c1sc(-n2cnc3cc(OC)c(OC)cc32)cc1OCc1ccccc1C(F)(F)F
value.unit: %
inhibition: 8.35

smiles.str: CS(=O)(=O)CCNCc1ccc(-c2ccc3ncnc(Nc4ccc(OCc5ccccc5)cc4)c3c2)o1
value.unit: %
inhibition: 12.5

smiles.str: COc1cccc(-n2ncc3c(N/N=C/c4ccc(C(=O)NCCN(C)C)cc4)ncnc32)c1
value.unit: %
inhibition: 89.7

smiles.str: Fc1ccc(Nc2nccc(-c3c(-c4ccc(C(F)(F)F)cc4)nn4ncccc34)n2)cc1F
value.unit: %
inhibition: 6.45
